Recorded values, source PubChem BioAssay AID1159580.

test: chemical genetic growth profiling, strain panel (AID 1159580);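 further: tested at 20 µM; growth read once vehicle control cultures reached saturation at 30 °C; 1 = growth at the plate median or of vehicle wells; lower values mean less growth of the strain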; details: S. cerevisiae deletion strains, growth OD, locus YHR079C, strain IRE1 (second series), hits give low values
In all, about 5,500 compounds went through this assay and about 2,000 (36%) were called active. Inconclusive results (about 18%) are left out. This is one part of the list.
measurement.name: normalized growth
Number only, no unit.

Param item = CC(C)c1ccc2c(c1O)CC[C@H]1C3=C(CC[C@]21C)C(=O)OC3 ; retrieve measured normalized growth.
0.959

Check COc1cc2cc[n+]3cc4c(OC)c(OC)ccc4cc3c2cc1OC too.
0.977

Also need CCCCCCCCCCCCCCCC[n+]1ccccc1 , thanks.
0.0605

Same lookup for COc1c(O)cc2c(-c3ccccc3)cc(=O)oc2c1OC , please.
0.959

Param item: COc1c(O)cccc1O
1.01

// next record NCC(=O)CCC(=O)O
0.982

Also C=CCc1ccccc1OCC(O)CNC(C)C (stereo not drawn) , if possible.
1.01

And COc1ccc2cc3[n+](cc2c1OC)CCc1cc2c(cc1-3)OCO2 ?
0.439

Same question for O=C(O)/C=C(\CC(=O)O)C(=O)O please.
0.968

Same thing, different compound: CC(=O)CC(c1ccccc1)c1c(O)c2ccccc2oc1=O (stereo not drawn)
1.01

Next up: CC(=O)O.CC(=O)O.[Cd]
0.196

Same for C[n+]1cc2c3c(ccc2c2ccc4cc5c(cc4c21)OCO5)OCO3
0.0663

And the next one, CC[N+]1(C)CCCC(OC(=O)C(O)(c2ccccc2)c2ccccc2)C1 (stereo not drawn) ?
1.01
